target: FXR (Homo sapiens); construct: purchased Invitrogen; experiment: Bile acid receptor FXR coactivator binding assay (LanthaScreen TR-FRET); type: biochemical; conditions: read-out: Relative activation effect
Sequence (Q96RI1 258-486 limits assumed, other chains not shown): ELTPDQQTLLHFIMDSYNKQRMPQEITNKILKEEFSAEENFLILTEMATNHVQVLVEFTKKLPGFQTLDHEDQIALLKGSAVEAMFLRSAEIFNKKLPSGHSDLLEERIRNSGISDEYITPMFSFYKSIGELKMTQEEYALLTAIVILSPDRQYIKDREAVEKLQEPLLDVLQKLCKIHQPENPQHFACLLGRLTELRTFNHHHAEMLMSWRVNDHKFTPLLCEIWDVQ
Each entry below lists one item and its recorded Emax value.
Give just the numeric value; % need not be written.

COMPOUND	Emax [%]
Cn1nc(-c2ccc(N3CCC(OCc4c(-c5c(Cl)cccc5Cl)noc4C4CC4)CC3)cc2)cc1C(=O)O [Compound C4]	102
O=C(O)c1ccc(-c2csc(N3[C@@H]4CC[C@H]3C[C@@H](OCc3c(-c5ccccc5OC(F)(F)F)noc3C3CC3)C4)n2)cc1F [Compound C44]	137
O=C(O)c1ccc(-c2csc(N3[C@@H]4CC[C@H]3C[C@@H](OCc3c(-c5ccccc5OC(F)(F)F)noc3C3CC3)C4)n2)cn1 [Compound C50]	177
Cc1cc(C(=O)O)ccc1-c1csc(N2[C@@H]3CC[C@H]2C[C@@H](OCc2c(-c4c(Cl)cccc4Cl)noc2C2CC2)C3)n1 [Compound C37]	139
O=C(O)c1ccc(-c2csc(N3CCC(OCc4c(-c5c(Cl)cccc5Cl)noc4C4CC4)CC3)n2)cc1 [Compound C2]	101
O=C(O)c1ccc(-c2csc(N3[C@@H]4CC[C@H]3C[C@@H](OCc3c(-c5ccccc5OC(F)(F)F)noc3C3CC3)C4)n2)c(C(F)(F)F)c1 [Compound C45]	113
O=C(O)c1ccc(-c2csc(N3[C@@H]4CC[C@H]3C[C@@H](OCc3c(-c5ccccc5OC(F)(F)F)noc3C3CC3)C4)n2)cc1C(F)(F)F [Compound C46]	196

Please examine the following record next.
Please tell me: Emax of O=C(O)c1ccc(-c2csc(N3[C@@H]4CC[C@H]3C[C@@H](OCc3c(-c5ccccc5OC(F)(F)F)noc3C3CC3)C4)n2)s1 [Compound C35] , system FXR (Homo sapiens)?
152

Entry source: patent US11667629B2
